PROTOCOL TEXT: LFS_MB_1R medulloblastoma cell growth inhibition, synergistic combos for chromothripsis tumors, cisplatin or BGB combos (AID 1671452);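 also: cells exposed for 96 hours before readout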
RUN PARAMETERS: LFS_MB_1R medulloblastoma cells, measured here: combination with cisplatin, at 5 µM, stronger effect = higher value
OBSERVATION TYPE: inhibition
Lab note: write values as number then unit, every time.

Recorded results for 3 compounds are shown here.
- COMPOUND: "Cc1c2ccncc2c(C)c2c1[nH]c1ccccc12"
  RECORDED MEASUREMENT: "99.2%"
- COMPOUND: "COc1cc(C2c3cc4c(cc3C(O)C3COC(=O)C23)OCO4)cc(OC)c1OC (centres undefined)"
  RECORDED MEASUREMENT: "60.9%"
- COMPOUND: "CN(C)NC(=O)CCC(=O)O"
  RECORDED MEASUREMENT: "-7.99%"

Let us examine a further case.
Exam item: Form field: reported inhibition of `CCC1(c2ccccc2)C(=O)NC(=O)NC1=O`
Marked response: 5.72%

====

Reported values of fold change for individual entries
PROTOCOL TEXT: sensitizers of A549 cells to miR-34 induction, primary screen, imaging, A549 dox-inducible miR-34, nuclei and caspase counts (AID 1347080)
RUN PARAMETERS: A549 miR-34 inducible, Hoechst nuclei count, 48 h; stronger effect = lower value
A bare number is all that is needed in reply.

The cases that follow already have their fold change on record.
- MOLECULE: "C[C@]12Cc3cn4c(nc3C=C1CCC1C2CC[C@@]2(C)[C@H]1CC[C@@]2(O)C#N)nc1ccccc14 (some centres undefined)"
  RECORDED MEASUREMENT: 1.02
- MOLECULE: "C=C(C)[C@H]1Cc2c(ccc3c2O[C@@H]2COc4cc(OC)c(OC)cc4[C@@H]2C3=O)O1"
  RECORDED MEASUREMENT: 1.11
- MOLECULE: "COc1ccc(CN2CCNCC2)c(OC)c1OC"
  RECORDED MEASUREMENT: 0.892
- MOLECULE: "C[C@]12CC[C@@H](O)C[C@@H]1CC[C@@H]1[C@@H]2CC[C@]2(C)C(=O)CC[C@@H]12"
  RECORDED MEASUREMENT: 0.869
- MOLECULE: "N#CC(C#N)=NNc1ccc(OC(F)(F)F)cc1"
  RECORDED MEASUREMENT: 1.05

Exam item: Request the reported fold change associated with CN1C(CC(O)c2ccccc2)CCCC1CC(O)c1ccccc1 (centres undefined)
Marked response: 0.827

Exam item: Please do the same for Oc1ccc2c3c1OC1[C@@H](O)CC[C@@]4(O)[C@@H](C2)N(CC2CCC2)CC[C@]314 (some centres undefined) as well.
Marked response: 0.892

Exam item: How about `NC=Nc1ccc2[nH]c3c(c2c1)C[C@@]1(O)C2Cc4ccc(O)c5c4[C@@]1(CCN2CC1CC1)[C@H]3O5` ?
Marked response: 0.975

Exam item: Follow-up item: CC(C)CC(N)C1(c2ccc(Cl)cc2)CCC1 (centres undefined)
Marked response: 1.01

Exam item: Same read-out for `C[C@@H]1CC[C@@]2(NC1)O[C@H]1C[C@H]3[C@@H]4CC=C5C[C@@H](O)CC[C@]5(C)[C@H]4CC[C@]3(C)[C@H]1[C@@H]2C` ?
Marked response: 0.905

Exam item: Quick one: C=CCN1CCC23c4c5ccc(O)c4O[C@H]2C(=O)CC[C@@]3(O)C1C5 (some centres undefined)
Marked response: 1.07

Exam item: Also `c1ccc2sc(C3(N4CCCCC4)CCCCC3)cc2c1` , if possible.
Marked response: 0.986

Exam item: Subsequent entry: `CCCC[C@H]1C(=O)O[C@H](C)[C@H](NC(=O)c2cccc(NC=O)c2OC)C(=O)O[C@@H](C)[C@@H]1OC(=O)CC(C)C`
Marked response: 1.28

Exam item: Param item: `C[N+]1(CCC(C(N)=O)(c2ccccc2)c2ccccc2)CCCCC1`
Marked response: 0.846

Exam item: Would you mind doing C[C@]12CCC(=O)CC1CCC1C2CC[C@@]2(C)C1CC[C@]2(C)O (some centres undefined) as well?
Marked response: 0.938

Exam item: Same question, CC1OC(=O)C(C(C)C)NC(=O)C(C(C)C)OC(=O)C(C(C)C)NC(=O)C(C)OC(=O)C(C(C)C)NC(=O)C(C(C)C)OC(=O)C(C(C)C)NC(=O)C(C)OC(=O)C(C(C)C)NC(=O)C(C(C)C)OC(=O)C(C(C)C)NC1=O (centres undefined) this time
Marked response: 0.784

Exam item: Could you do the same for CC(C)CC(NP(=O)(O)O[C@@H]1O[C@@H](C)[C@H](O)[C@@H](O)[C@H]1O)C(=O)NC(Cc1c[nH]c2ccccc12)C(=O)O (some centres undefined) , please?
Marked response: 0.965

Exam item: Entry to check: `CC(C)(O)C(Cl)(Cl)Cl`
Marked response: 0.973

Exam item: Okay, and `c1ccc2c(N3CCNCC3)cccc2c1` ?
Marked response: 0.966

Exam item: Request: COC(=O)C(c1ccccc1)C1CCCCN1 (centres undefined)
Marked response: 0.909

Exam item: Please give the result for `Nc1cc2c(ncn2CCOCP(=O)(O)O)c(=O)[nH]1` too.
Marked response: 1.06

====

PROTOCOL TEXT: sensitizers of A549 cells to miR-34 induction, primary screen, imaging, A549 dox-inducible miR-34, nuclei and caspase counts (AID 1347080)
RUN PARAMETERS: A549 miR-34 inducible, Hoechst nuclei count, 48 h; measured here: total cells with miR-34 induction; stronger effect = lower value
OBSERVATION TYPE: cell count
Format: numeric value only, no unit, no commentary.

Known results for compounds:
- COMPOUND: "CC(=O)OCC(=O)[C@H]1CC[C@H]2[C@@H]3CC[C@H]4C[C@H](O)CC[C@]4(C)[C@H]3C(=O)C[C@]12C"
  cell count: 8940
- COMPOUND: "COC(C/C=C/C=C/CC/C=C\\CC(C)/C=C\\C(=C/C(=O)O)CC(=O)O)/C(C)=C\\C=C(/C)C(=O)O (centres undefined)"
  cell count: 5720
- COMPOUND: "NC1=NC(=O)N2CC12 (centres undefined)"
  cell count: 8180

Exam item: Entry CC1(C(=O)O)C2CCC(O2)C1(C)C(=O)O (centres undefined) : reported cell count = ?
Marked response: 286

Exam item: And what about the compound COc1cc2c(cc1OC)C(C)NCC2 (centres undefined) ?
Marked response: 9140

Exam item: Same question, C[C@H]1C2Cc3ccc(O)cc3C1(C)CCN2CC1CC1 (some centres undefined) this time
Marked response: 10600

Exam item: Moving on to the next compound: `COc1cc(OC)c(OC)cc1C=O`
Marked response: 9380

Exam item: Likewise for `CN[C@@H]1[C@@H](O)[C@@H](O[C@@H]2[C@@H](O)[C@H](O[C@H]3O[C@H]([C@@H](C)NC)CC[C@H]3N)[C@@H](N)C[C@H]2N)OC[C@]1(C)O` ?
Marked response: 10000

Exam item: Then this compound: `CCOP(=S)(OCC)Oc1nc(Cl)c(Cl)cc1Cl`
Marked response: 8030

Exam item: Please do the same for OC12C3C4CC5C6C4C1C6C(C53)N2CCc1cccc(F)c1 (centres undefined) as well.
Marked response: 7940

Exam item: Note, next up: COc1ccc2cc(C(C#N)OC(=O)OCC3OC3c3ccccc3)ccc2c1 (centres undefined)
Marked response: 5380

Exam item: Next up: `C[C@]12CCC(=O)C=C1C=C[C@@H]1[C@@H]2CC[C@@]2(C)[C@H]1CC[C@@]2(O)CCC(=O)O`
Marked response: 8420

Exam item: What would you report for C#CC1(O)CCC2C3CCC4=CC(=O)CCC4(C)C3CCC21C (centres undefined) ?
Marked response: 10400

Exam item: Here is the next compound: O=C1CC2OCC=C3CN4CC[C@]56c7ccccc7N1C5[C@H]2[C@H]3CC46 (some centres undefined)
Marked response: 11700

Exam item: Likewise for `CCCCC/C=C\C/C=C\C/C=C\C/C=C\CCCC(=O)NC(CO)CO` ?
Marked response: 5640

Exam item: Please answer likewise for CC12CCC(=O)C=C1CCC1C2CCC2(C)C(O)CCC12 (centres undefined)
Marked response: 9970

Exam item: Now give it for `CCN1C[C@@]2(COC)C3[C@@H](OC)C4[C@@H]1C3([C@@H]1C[C@@]3(O)[C@H](OC(=O)c5ccccc5)[C@@H]1[C@]4(OC(C)=O)[C@@H](O)[C@@H]3OC)[C@H](OC)C[C@H]2O` too.
Marked response: 10600

Exam item: Consider next the compound `C[C@]12CC[C@H](O)C[C@H]1CC[C@@H]1[C@@H]2C[C@@H](O)[C@]2(C)[C@@H](C3=CC(=O)OC3)CC[C@]12O` in the same way.
Marked response: 550

Exam item: // repeat for `CCOC(=O)c1cncn1[C@@H](C)c1ccccc1` and report
Marked response: 8390

Exam item: Also check `O=[N+]([O-])c1ccc2nc(N3CCNCC3)ccc2c1`
Marked response: 8660

Exam item: Subsequent entry: `CP(=O)(O)C1=CCNCC1`
Marked response: 9760

Exam item: Also C=CC[C@]1(O)CCC2C3CCC4=CC(=O)CCC4=C3C=C[C@@]21C (some centres undefined) , if possible.
Marked response: 10300

Exam item: Also `c1cncc([C@H]2CCCCN2)c1` ?
Marked response: 8860

Exam item: Same question, C[C@@H]1CN(C2CCC(C#N)(c3ccc(F)cc3)CC2)CC[C@]1(C(=O)O)c1ccccc1 (some centres undefined) this time
Marked response: 9400

Exam item: Okay, and CCNC(=O)[C@H]1O[C@@H](n2cnc3c(N)ncnc32)[C@@H](O)C1O (some centres undefined) ?
Marked response: 6150

Exam item: Would you kindly repeat that for `O[C@H]1[C@H]2[C@H](O)CCCN2C[C@H]1O` ?
Marked response: 5340

Exam item: Now try CCC1C=CC=CCC(C)C(O)C(C)C(=O)C(C)C(O)C(C)C(=O)C(C)C(O)C(C)C=CC(=O)OC2C(C)C(CC1)O[C@@]1(CCC(C)C(CC(C)O)O1)C2C (some centres undefined) .
Marked response: 7130

Exam item: Input `CC(=O)OCC1=C(C(=O)[O-])N2C(=O)[C@@H](NC(=O)CCC[C@@H](N)C(=O)[O-])[C@H]2SC1.[Zn+2]`
Marked response: 10400

Exam item: // repeat for C[N+]1([O-])[C@@H]2CC(OC(=O)[C@H](CO)c3ccccc3)C[C@H]1[C@@H]1O[C@@H]12 (some centres undefined) and report
Marked response: 8380
